# Assay Method Text: PET hydrolysis, aromatic products released after 48 h (umol product/mg enzyme); higher = more PET depolymerization activity
# Cond: substrate: aFilm; 40 °C; pH 7.5
Readout: PET hydrolysis
Numbers only.

The sequence listed as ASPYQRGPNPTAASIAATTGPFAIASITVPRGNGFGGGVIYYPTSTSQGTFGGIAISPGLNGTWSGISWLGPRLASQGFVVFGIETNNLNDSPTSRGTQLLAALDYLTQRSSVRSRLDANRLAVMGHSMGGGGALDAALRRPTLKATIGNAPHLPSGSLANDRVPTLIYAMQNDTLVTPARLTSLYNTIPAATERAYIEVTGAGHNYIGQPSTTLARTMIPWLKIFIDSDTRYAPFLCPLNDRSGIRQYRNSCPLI [ESM128] shows PET hydrolysis equal to 6

* * *

# Assay Method Text: PET hydrolysis, aromatic products released after 48 h (umol product/mg enzyme); higher = more PET depolymerization activity
# Cond: substrate: cryPow; 60 °C; pH 6.5
Exercise: state measured PET hydrolysis for each of the sequences provided.
Numbers only.

• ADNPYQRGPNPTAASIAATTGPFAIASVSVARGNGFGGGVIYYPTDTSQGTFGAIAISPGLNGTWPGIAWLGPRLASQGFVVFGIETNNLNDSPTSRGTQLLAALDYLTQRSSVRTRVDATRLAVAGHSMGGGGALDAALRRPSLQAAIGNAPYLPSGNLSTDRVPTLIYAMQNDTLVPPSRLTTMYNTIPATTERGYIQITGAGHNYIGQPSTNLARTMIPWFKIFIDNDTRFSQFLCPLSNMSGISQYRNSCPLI [ESM159] = 6.5
• MPPPPPPPPPVQTVTVEPGYGFGGGTIYYPQESTGRLPVVAAVPGFTETQEAVAWYGPLLARRGNIVITIDTISPTNAPKTRADQALAAIDYVVTQSAVSDIADASRTAVMGHSMGGGASLFAALKRPTLKAIVPLAPWARTTDFSGVAVPTLIVGCENDGIAAVGTYAEPFYESIPATTPKAYLEMAGGNHYCTNSEDPVIAGYVSAWTDRFLKGDTTASSRLCPPSPVGPISEYRSNCPY [TEP189] = 23

The recorded PET hydrolysis for entry APDTVVGNPFARGPDPTKESIEAERGPFAVATEKVPGGKGFGGGTIHYPTDTSQGTFGAIAVAPGFTESESAIAWYGPRLASQGFVVITISTNGLWDLPASRADQLLAALRHVTDASQIKSRVDRDRLAVMGHSMGGGGSLIAARNNPALKATIPLTGWNPNTSFSDLKVPTFVVSAQNDFIAPDGSHSRPFYQSLPASLNKAYMRLAGVGHMAPVNPNVTIAKYSISWLKRFVDNDTRYSQFLCPLPTGDPKIAAYEGTCPLS [DP008] equals 9

* * *

# Assay Method Text: purified protein yield per well (BCA); higher = higher soluble expression
Readout: purified protein yield per well (µg)
Give bare numbers, in µg.

* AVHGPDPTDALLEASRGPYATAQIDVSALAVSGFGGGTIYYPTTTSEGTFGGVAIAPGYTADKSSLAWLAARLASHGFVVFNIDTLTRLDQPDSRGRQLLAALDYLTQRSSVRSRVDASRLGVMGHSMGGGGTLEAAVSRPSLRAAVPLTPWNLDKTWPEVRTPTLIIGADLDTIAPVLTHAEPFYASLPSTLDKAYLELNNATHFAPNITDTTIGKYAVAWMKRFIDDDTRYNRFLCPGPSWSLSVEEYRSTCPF [TEP061] | 299

Okay, here is my list. What is purified protein yield per well for each of these?
1. CATAGSALVSAPSLSGDGSYEVQTYTDFPDVPEFGAATIYYPVGASEPMGGVAIAPGFTEEQRHIAWWGPRLASHGYAVLVLDTNDRRERPDARADALIAGVTLLRAEGRRRGSPLFGRIDAAKMAIMGHSMGGGGALLAADEHSDLIRAAIPFTPWEPETDLRGISAPTLVLAGAADRVAEVEGHAWRHFSMIPESTPKVYMEIAGGDHYIADTTRGMDLATVGRYAIAWLKLYVDGDEQYRDLIYGEIPPADAAKFSRYVVNP [TEP157]
2. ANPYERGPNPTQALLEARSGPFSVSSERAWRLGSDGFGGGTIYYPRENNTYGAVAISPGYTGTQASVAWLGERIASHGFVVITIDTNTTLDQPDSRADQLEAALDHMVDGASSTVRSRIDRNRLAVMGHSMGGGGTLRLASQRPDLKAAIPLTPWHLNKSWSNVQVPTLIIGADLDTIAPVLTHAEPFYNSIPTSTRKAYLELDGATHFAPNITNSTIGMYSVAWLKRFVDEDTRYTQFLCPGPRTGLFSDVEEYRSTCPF [TEP014]

[80.2, 267]

* * *

# Assay Method Text: PET hydrolysis, aromatic products released after 48 h (umol product/mg enzyme); higher = more PET depolymerization activity
# Cond: substrate: cryPow; 60 °C; pH 7.5
Readout: PET hydrolysis

- APDTVVGNPFARGPDPTKESIEAERGPFAVATEKVPGGKGFGGGTIHYPTDTSQGTFGAIAVAPGFTESESAIAWYGPRLASQGFVVITISTNGLWDLPASRADQLLAALRHVTDASQIKSRVDRDRLAVMGHSMGGGGSLIAARNNPALKATIPLTGWNPNTSFSDLKVPTFVVSAQNDFIAPDGSHSRPFYQSLPASLNKAYMRLAGVGHMAPVNPNVTIAKYSISWLKRFVDNDTRYSQFLCPLPTGDPKIAAYEGTCPLS [DP008]: 9
- DEIGQAPTSSNITGNGSFSVATYNISSLVSGFGGGVAYYPTTSGRYPVIAVSPGFTARWSSISWIGPRLASWGFVVVGIETNSIYDQPGSRGSQLLAALNWAVNSAPSSVRDRVDGSRRGVAGHSMGGGGTLEALAADTTGLVKAGVPIAPWNTDTTWGGLNEAVQIVGGESDTIAPVSSHSIPFYSTLGGPKSYVELNGASHFFPQTSNSTLSRALVSWFKRYLNNDARFTPFTCGYSGLSISDFRSNNC [ESM144]: < 3
- ADNPYQRGPDPTRTSVATERGPFANTSVSVPSGYGFNGGRIYYPTDTSQGTFGAIAISPGYTALFSAELAWMGPWLASHGFVVIGIETNSRNDFDTARGTQLLAALDYLTQQSPVRDRIDPNRLAVSGHSMGGGGALSAAMRRSSLKAVVGIAPYSPSSNLANDRVPTMIFSGQADTVVTPSYAMGLYNSIPAGTKSAYLEVAGGDHGFMVGRSNPVLIRTMLPFLKIFIDNDARYSQFLCPLLDNSGVVTYRSTCPFLPTTPTTPPPTG [ESM065]: < 3
- GSLAHIVMVDAYKPTKGSGASQTNPYARGPNPTAASLEASAGPFTVRSFTVSRPSGYGAGTVYYPTNAGGTVGAIAIVPGYTARQSSIKWWGPRLASHGFVVITIDTNSTFDYPSSRSSQQMAALRQVASLNGDSSSPIYGKVDTARMGVMGHSMGGGASLRSAANNPSLKAAIPQAPWDSQTNFSSVTVPTLIFACENDSIAPVNSHALPIYDSMSRNAKQFLEINGGSHSCANSGNSNQALIGKKGVAWMKRFMDNDTRYSTFACENPNSTAVSDFRTANCSLEGSGGSGAHIVMVDAYKPTK [TEP004]: 82

Turning now to a further record.
// PET hydrolysis lookup, sequence = QPTLESLGNPGPYQVAYYDQLPEVDEYGAATLYFPANRGTDFGGVAIAPGFIEQQENIEWWGRHLASYGFAVLVLDTNNPRDDPQVRSEALLAALDVIRGEGARSGSPIRGKILNDRMAVMGHSMGGGGTLLAANRASDQLKAIIPFTPWLPNADFSSVAVPTLVLAGEVDRIASVAEHAWPHFQTLPEGIPRMYVEIAGGNHFIANSTTDQERLNPNIDVHDLVGALGVAWLKYFVDGDEDYRDLIYGELPAEQRARLSRFEFVQ [TEP107] , result: < 3

* * *

# Assay Method Text: PET hydrolysis, aromatic products released after 48 h (umol product/mg enzyme); higher = more PET depolymerization activity
# Cond: substrate: cryPow; 60 °C; pH 8.5
Readout: PET hydrolysis
Numbers only.

Field: example entries. Status: answers known.
* ANPYERGPAPTKASIEATTGYFATAKVTVAKSSVSGFGGGTIYYPTSTTSGTFGAIALVPGFTNVQSAVAWLGPRVASQGFVVFIIDTNSVYDSPDSRGTQLLAALDYLTNTSTVKSRVDATRLGVMGYSMGGGGALSATKTRTSIKASVPMAPYHSTKTWTTVKTPTLIVTGQSDTTAPPASHGLAFYNSLSTSIDKAYMELKGAGHSAPTSANTTIAKYSISWFKRFIDDDTRYDQFLCPNPTDTTISSYKSTCNYS [DP082] | 32
* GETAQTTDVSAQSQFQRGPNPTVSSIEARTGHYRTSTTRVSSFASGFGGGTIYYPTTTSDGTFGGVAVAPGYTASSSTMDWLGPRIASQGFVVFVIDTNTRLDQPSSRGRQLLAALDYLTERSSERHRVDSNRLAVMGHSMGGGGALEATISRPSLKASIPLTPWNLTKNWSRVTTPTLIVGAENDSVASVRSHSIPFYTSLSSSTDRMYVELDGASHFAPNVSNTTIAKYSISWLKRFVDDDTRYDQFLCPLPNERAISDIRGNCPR [DP090] | 2

PET hydrolysis reading for APDTVVGNPFARGPDPTKESIEAERGPFAVATEKVPGGKGFGGGTIHYPTDTSQGTFGAIAVAPGFTESESAIAWYGPRLASQGFVVITISTNGLWDLPASRADQLLAALRHVTDASQIKSRVDRDRLAVMGHSMGGGGSLIAARNNPALKATIPLTGWNPNTSFSDLKVPTFVVSAQNDFIAPDGSHSRPFYQSLPASLNKAYMRLAGVGHMAPVNPNVTIAKYSISWLKRFVDNDTRYSQFLCPLPTGDPKIAAYEGTCPLS [DP008] : 9
